I'd be grateful if you could share measured pKd for these entries.
# assay.target: T1, rhEphA5 antigen (Homo sapiens, UniProt P54756)
# T1 construct: purchased R and D systems 3036-A5
# protocol: KD (M)
The read-out pKd is expressed as -log10 of concentration in moles per litre.

For the molecule VH1/VK5: humanized anti-EphA5 antibody, VH SEQ ID NO:2, VL SEQ ID NO:13 (antibody, V domains shown) VH: EVTLVESGGGLVQPGGSRKLSCAASGFTFSTFGIHWVRQAPGKGLEWVAYISGASTTIYYADTVKGRFTISRDNSKNTLYLQMNSLRSEDTAMYYCARYGTSFPYGLDYWGQGTSVTVSS VL: DIVMTQSPDSLAVSLGERATINCKSSQSVDYDGDSYMNWYQQKPGKAPKLLIYGASNLESGIPDRFSGSGSGTDFTLTISRLEPEDAAVYYCQQSNEDPFTFGQGTKLEIK , what pKd is on record?
8.95

And the next one, VH1/VK1: humanized anti-EphA5 antibody, VH SEQ ID NO:2, VL SEQ ID NO:9 (antibody, V domains shown) VH: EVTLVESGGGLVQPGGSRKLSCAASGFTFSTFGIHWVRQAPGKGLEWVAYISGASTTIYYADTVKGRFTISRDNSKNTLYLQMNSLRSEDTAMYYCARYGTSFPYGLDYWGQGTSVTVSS VL: DIVMTQSPGSLAVSLGERATINCKASQSVDYDGDSYMNWYQQKPGKAPKLLIYGASNLESGIPDRFSGSGSGTDFTLTISRLEEEDAASYYCQQSNEDPFTFGQGTKLEIK ?
8.99

// same read-out, input: VH2/VK1: humanized anti-EphA5 antibody, VH SEQ ID NO:3, VL SEQ ID NO:9 (antibody, V domains shown) VH: EVTLVESGGGLVQPGGSLKLSCAASGFTFSTFGIHWVRQAPGKGLEWVAYISGASTTIYYADTVKGRFTISRDNSKNTLYLQMNSLRSEDTAMYYCARYGTSFPYGLDYWGQGTLVTVSS VL: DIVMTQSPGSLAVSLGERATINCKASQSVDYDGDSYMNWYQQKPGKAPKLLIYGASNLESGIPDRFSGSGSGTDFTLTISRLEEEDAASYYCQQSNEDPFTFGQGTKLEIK
9.05

# iterate: VH1/VK4: humanized anti-EphA5 antibody, VH SEQ ID NO:2, VL SEQ ID NO:12 (antibody, V domains shown) VH: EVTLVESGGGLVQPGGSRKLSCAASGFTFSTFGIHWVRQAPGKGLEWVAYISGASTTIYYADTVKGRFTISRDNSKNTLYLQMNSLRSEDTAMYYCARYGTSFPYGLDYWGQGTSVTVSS VL: DIVMTQSPDSLAVSLGERATINCKSSQSVDYDGDSYMNWYQQKPGKAPKLLIYGASNLESGIPDRFSGSGSGTDFTLTISRLEPEDAASYYCQQSNEDPFTFGQGTKLEIK
8.96
